# System: sulfotransferases (SULTs) in human intestine cytosol
# Test description: Sulfation of flavonoids by human intestine cytosol
# Assay type: in vitro ADME
# Test conditions: male, human, human intestine cytosol, pH 6.2

{"Molecule": "COc1ccc([C@@H]2CC(=O)c3c(O)cc(O)cc3O2)cc1O", "Assayed system": "sulfotransferases (SULTs) in human intestine cytosol", "Unit abbreviation": "µM", "Km at 30 min": 66}
{"Molecule": "Oc1cc(O)c2c(c1)O[C@H](c1ccc(O)c(O)c1)[C@H](O)C2 [Epicatechin, (−)epicatechin]", "Assayed system": "sulfotransferases (SULTs) in human intestine cytosol", "Unit abbreviation": "µM", "Km at 30 min": 149}
{"Molecule": "O=C1C[C@@H](c2ccc(O)c(O)c2)Oc2cc(O)cc(O)c21", "Assayed system": "sulfotransferases (SULTs) in human intestine cytosol", "Unit abbreviation": "µM", "Km at 30 min": 220}
